The following molecules are shown together with reported cytotoxicity at 10 µM values.
experiment: Toxicity liver stage against HepG2, at 10uM; format: cell-based; set-up: test concentration 10 uM, cell line HepG2-A16-CD81EGFP; settings: human, HepG2-A16-CD81EGFP cells; read-out: INHIBITION
metric name: cytotoxicity at 10 µM (%)

molecule | number
CC(C)Cc1nc(CN2CCOC(Cn3cncn3)C2)no1 (centres undefined) | 2.07
O=C(O)C1CCN(C(=O)Cn2ccc3c(Cl)cccc32)CC1 | -3.91
CCc1nc(C)c(C(=O)N2C[C@@H](C(=O)O)[C@H](C3CC3)C2)s1 | 3.41
COc1ccc(C(=O)N2C[C@@H](O)[C@H](NCc3cnc(C)cn3)C2)cc1 | 3.34
Cc1nccn1CCN(C)C(=O)c1cn(CC2CCCCC2)nn1 | -1.84
CC1(c2nccs2)CCN(C(=O)CC2CCOCC2)CC1 | -0.29
CC[C@@H]1N(Cc2ccoc2)CCC[C@]12CCC(=O)N2CCOC | 11
CCOc1ccc(NC(C)=O)cc1S(=O)(=O)Nc1nnc(C)s1 | -17.6
N#Cc1ccc(C(=O)N2CC[C@H]3[C@@H]2CCC(=O)N3c2cccnc2)cc1 | 1.77
Cc1n[nH]cc1CNc1ccc2c(c1)CN(C(=O)OC(C)(C)C)CC2 | 14.9
Cc1ccccc1C(=O)NC(C)CN1CCOC1=O (centres undefined) | 4.33
Cc1nc(CN2CCCN(C(=O)c3cnccn3)CC2)cs1 | -9.51
Cc1nncn1CCN1C(=O)CC2(CCCC2)CC1=O | -0.745
c1ccc(CCCN2CCCC(Nc3cnc4ccccc4n3)C2)cc1 (centres undefined) | 1.34
COc1c(F)cc(-c2cn(CCn3c(C)cc(C)nc3=O)nn2)cc1Cl | -1.72
CCNS(=O)(=O)C1CCN(C(=O)c2ccc(CC)o2)C1 (centres undefined) | 5.45
CC1CCN(C(=O)CSc2nc3c(cnn3CCO)c(=O)[nH]2)CC1 | 7.98
CN(Cc1ccco1)Cc1ccccc1CNC(=O)c1ccncc1 | -9.87
N#Cc1cnc2cc(F)cc(F)c2c1NC1CCN(CC(N)=O)CC1 | 0
CC(NC(=O)CCC(=O)c1cccs1)c1nnc2n1CCCCC2 (centres undefined) | -7.76
C=C(C)CNC(=O)C1CCC(=O)N(C2CCCC2)C1 (centres undefined) | -3.4
CC(C)c1n[nH]c(C2CN(Cc3ccno3)CCO2)n1 (centres undefined) | 5.49
CC(C)Oc1ccc(-c2csc(Cn3ccc(=O)[nH]c3=O)n2)cc1 | 0.137
CCc1ccc(S(=O)(=O)Nc2ccc(F)cc2C(=O)O)s1 | 3.69
